# measurement_target: Notum(81–451 Cys330Ser) (Homo sapiens, UniProt Q6P988, C330S)
# Sequence (Q6P988 81-451 C330S): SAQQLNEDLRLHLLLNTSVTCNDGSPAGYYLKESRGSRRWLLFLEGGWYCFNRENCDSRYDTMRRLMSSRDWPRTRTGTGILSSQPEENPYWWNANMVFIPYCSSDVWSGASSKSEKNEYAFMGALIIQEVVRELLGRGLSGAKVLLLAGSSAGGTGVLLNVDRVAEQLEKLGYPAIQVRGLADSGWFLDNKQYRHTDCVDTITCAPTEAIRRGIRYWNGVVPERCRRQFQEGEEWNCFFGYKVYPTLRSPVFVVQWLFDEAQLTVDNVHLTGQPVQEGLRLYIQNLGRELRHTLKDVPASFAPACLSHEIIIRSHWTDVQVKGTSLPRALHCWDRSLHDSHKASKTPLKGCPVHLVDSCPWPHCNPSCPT
# measurement_notes: Notum biochemical OPTS assay (carboxylesterase activity)
# particulars: OPTS substrate, 1 h incubation; geometric mean ± s.d.
parameter_measured: IC50 (nM)

1) O=C(O)CSc1ncnc2c1ccn2Cc1ccccc1
50000
2) Cc1nc2n(n1)CCN(C(=O)CSc1ncnc3sc(C)c(Cl)c13)C2
11
3) Cc1sc2ncnc(SCC(=O)N3CCn4nc(C(F)(F)F)nc4C3)c2c1Cl
18
4) Cc1sc2ncnc(SCC(=O)N3CCNC(=O)C3)c2c1Cl
5.8
5) Cc1c(C#N)sc2ncnc(SCC(=O)O)c12
25

a. Cc1oc2ncnc(SCC(=O)O)c2c1C
b. N#Cc1sc2c(SCC(=O)O)ncnc2c1C1CC1
c. Cc1sc2ncnc(SCC(=O)N3CCCCC3)c2c1Cl
d. Cc1c(C(F)(F)F)sc2ncnc(SCC(=O)N3CC(=O)N(C)C3)c12
I would appreciate it if you could sort these 4 molecules by IC50, starting from the smallest number. Sort and list the labels as requested. d, b, a, c
(d: 1.6 nM, b: 8.1 nM, a: 50 nM, c: 220 nM)

I. Cc1sc2ncnc(SCC(=O)O)c2c1C(F)(F)F
II. Cc1sc2ncnc(SCC(=O)N3CCn4ncnc4C3)c2c1Cl
III. Cc1sc2ncnc(SCC(=O)N3CNC(=O)C3)c2c1Cl
Provide the items ranked by increasing IC50. Labels, requested order. III, I, II
